- Measured on: human FGFR-3 (Homo sapiens (Human))
- Sequence (P22607 397-806): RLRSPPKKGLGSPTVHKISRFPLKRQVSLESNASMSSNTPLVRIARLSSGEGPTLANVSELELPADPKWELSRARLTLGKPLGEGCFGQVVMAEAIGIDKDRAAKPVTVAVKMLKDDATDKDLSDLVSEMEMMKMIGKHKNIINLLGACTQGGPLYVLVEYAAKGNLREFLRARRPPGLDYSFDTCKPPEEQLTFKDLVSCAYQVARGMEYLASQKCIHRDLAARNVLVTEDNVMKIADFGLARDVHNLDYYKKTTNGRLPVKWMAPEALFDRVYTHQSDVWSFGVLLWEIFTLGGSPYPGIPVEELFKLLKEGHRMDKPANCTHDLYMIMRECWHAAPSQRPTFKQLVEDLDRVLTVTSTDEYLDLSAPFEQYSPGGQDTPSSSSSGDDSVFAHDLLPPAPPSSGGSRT
- Method: FGFR-3 kinase assay (TR-FRET)
- Assay type: biochemical
- Run parameters: 10 μM ATP, 15 min pre-incubation with enzyme
Structures can show the parent of a compound that is named as a salt.
Listed here: items and their measured pIC50.
The quantity pIC50 is defined as the negative base-10 logarithm of the molar concentration.

[
  {
    "Compound": "COc1cc(C)cc2cc(-c3cc(CN4CC(N(C)C)C4)n4ncnc(N)c34)sc12",
    "pIC50": 7.17
  },
  {
    "Compound": "COc1cc(Cl)cc2cc(-c3cc(CN4CCNCC4)n4ncnc(N)c34)sc12 [Example 4, trihydrochloride]",
    "pIC50": 7.10
  },
  {
    "Compound": "COc1cc(C)cc2cc(-c3cc(CN4CC5CNCC5C4)n4ncnc(N)c34)sc12 (centres unmarked)",
    "pIC50": 7.16
  },
  {
    "Compound": "COc1cc(C)cc2cc(-c3cc(CN4CC(O)C(NCCO)C4)n4ncnc(N)c34)sc12 (centres unmarked)",
    "pIC50": 8.10
  },
  {
    "Compound": "Nc1nccn2c(C3CCC3)nc(-c3ccc4sccc4c3)c12 [WO 2007/061737 Example 4, reference compound]",
    "pIC50": 5.62
  }
]

Task: Form entry - test system: human FGFR-3 (Homo sapiens (Human)); read-out: pIC50; compound: CCC(N)COCc1cc(-c2cc3cc(C)cc(OC)c3s2)c2c(N)ncnn12 (centres unmarked)
Output: 6.99

Task: Form entry - test system: human FGFR-3 (Homo sapiens (Human)); read-out: pIC50; compound: "COc1cc(C)cc2cc(-c3cc(CN4CCN(C(N)=O)CC4)n4ncnc(N)c34)sc12"
Output: 7.53

Task: Form entry - test system: human FGFR-3 (Homo sapiens (Human)); read-out: pIC50; compound: "COc1cc(C)cc2cc(-c3cc(COCCN)n4ncnc(N)c34)sc12"
Output: 7.27

###

- Test system: Human umbilical vein endothelial cells (HUVEC)
- Method: Inhibition of growth factor-mediated cell proliferation (hFGF-2)
- Assay type: cell-based
- Run parameters: Homo sapiens, HUVEC, 72 h, 72 h exposure, hFGF-2 stimulated; from averaged pIC50 values
Where a name gives a salt, the structure may show the parent alone.
Listed here: items and their measured IC50.
Give your result in nM as a bare value.

// worked examples, IC50 included
[
  {
    "Compound": "COc1cc(C)cc2cc(-c3cc(CN4CC[C@](C)(N)C4)n4ncnc(N)c34)sc12 [Example 5, trihydrochloride]",
    "Unit tag": "nM",
    "IC50": 48
  },
  {
    "Compound": "COc1cc(C)cc2cc(-c3cc(CN4CC[C@H](N)C4)n4ncnc(N)c34)sc12 [Example 9]",
    "Unit tag": "nM",
    "IC50": 145
  },
  {
    "Compound": "CNC1CCN(Cc2cc(-c3cc4cc(C)cc(OC)c4s3)c3c(N)ncnn23)C1 (centres unmarked) [Example 41]",
    "Unit tag": "nM",
    "IC50": 49
  },
  {
    "Compound": "COc1cc(C)cc2cc(-c3cc(CN4CCC(NCC(C)O)C4)n4ncnc(N)c34)sc12 (centres unmarked) [Example 22]",
    "Unit tag": "nM",
    "IC50": 105
  },
  {
    "Compound": "COc1cc(C)cc2cc(-c3cc(CN4CCNC(C)(C)C4)n4ncnc(N)c34)sc12 [Example 45]",
    "Unit tag": "nM",
    "IC50": 217
  },
  {
    "Compound": "COc1cc(C)cc2cc(-c3cc(CN4CCNC(=O)CC4)n4ncnc(N)c34)sc12 [Example 20]",
    "Unit tag": "nM",
    "IC50": 110
  },
  {
    "Compound": "COc1cc(C)cc2cc(-c3cc(CN[C@@H]4CCNC4=O)n4ncnc(N)c34)sc12 [Example 6, dihydrochloride]",
    "Unit tag": "nM",
    "IC50": 22
  }
]

// next entry
Task: Form entry - test system: Human umbilical vein endothelial cells (HUVEC); read-out: IC50; compound: CCN[C@H]1CCN(Cc2cc(-c3cc4cc(C)cc(OC)c4s3)c3c(N)ncnn23)C1 [Example 16]
Output: 80
